method.description: Microsomal stability (rat)
Type: in vitro ADME
measurement.conditions: rat microsomes
measured.endpoint: Microsomal Stability (rat) T1/2 (min)

Example cases with answers are listed next.
{"columns": ["molecule", "endpoint.result"],
 "data": [
  ["O=Cc1ccc(-c2ccc3ncc4ccc(=O)n(-c5ccc(C(=O)N6CCOCC6)cc5)c4c3c2)cn1", 2.8],
  ["CCC(=O)NCCNC(=O)c1ccc(-n2c(=O)ccc3cnc4ccc(-c5ccc(Cl)cc5)cc4c32)cc1", 4.3]
]}

(P) O=C(c1ccc(-n2c(=O)ccc3cnc4ccc(-c5ccc(Cl)cc5)cc4c32)cc1)N1CC2CCC(C1)O2
(Q) COC(=O)c1cc(-c2ccc3ncc4ccc(=O)n(-c5ccc(C(=O)N6CCOCC6)cc5)c4c3c2)ccc1Cl
(R) CN(C)Cc1ccc(-c2ccc3ncc4ccc(=O)n(-c5ccc([S+](C)[O-])cc5)c4c3c2)cc1 (stereo not shown)
Req: Arrange the 3 molecules from largest to smallest Microsomal Stability (rat) T1/2. // rank by listing labels in the order requested
Resp: R, P, Q
(R: 51.7 min, P: 4.8 min, Q: 3.3 min)

###

method.description: Microsomal stability (rat)
Type: in vitro ADME
measurement.conditions: rat microsomes
measured.endpoint: Microsomal Stability (rat) T1/2 (min)

Example cases with answers are listed next.
{"columns": ["compound", "units.of.measure", "Microsomal Stability (rat) T1/2"],
 "data": [
  ["Nc1cc(Cl)ccc1-c1ccc2ncc3ccc(=O)n(-c4ccc(C(=O)N5CCOCC5)cc4)c3c2c1 [Compound 136]", "min", 7.8],
  ["O=C(NC1CCCCC1)c1ccc(-n2c(=O)ccc3cnc4ccc(-c5ccc(Cl)cc5)cc4c32)cc1 [Compound 155]", "min", 10.7],
  ["CC(C)(C)c1ccc(-c2ccc3ncc4ccc(=O)n(-c5ccc(C(=O)N6CCOCC6)cc5)c4c3c2)cc1 [Compound 196]", "min", 18]
]}

(1) Cc1c(C#N)cccc1-n1c(=O)ccc2cnc3ccc(-c4ccc(CN(C)C)cc4)cc3c21 [Compound 10]
(2) CCNS(=O)(=O)c1ccc(-n2c(=O)ccc3cnc4ccc(-c5ccc(Cl)cc5)cc4c32)cc1 [Compound 41]
Req: // task: argmin of Microsomal Stability (rat) T1/2 over [ 1 , 2 ] Bench note: the answer is the label of the chosen record.
Resp: 2

###

Microsomal Stability (rat) T1/2 values by entry
method.description: Microsomal stability (rat)
Type: in vitro ADME
measurement.conditions: rat microsomes

Example cases with answers are listed next.
{"columns": ["compound", "Microsomal Stability (rat) T1/2"],
 "data": [
  ["COc1cc(C(=O)NC2CC2)ccc1-n1c(=O)ccc2cnc3ccc(-c4ccc(Cl)c(O)c4)cc3c21", ">30 min"],
  ["O=C(O)c1ccc(-n2c(=O)ccc3c(O)nc4ccc(-c5ccc(Cl)cc5)cc4c32)cc1", ">30 min"],
  ["O=C1NCc2cc(-n3c(=O)ccc4cnc5ccc(-c6ccc(OC7CCNCC7)cc6)cc5c43)ccc21", ">30 min"]
]}

Then this compound:
The compound listed as CN(C)Cc1ccc(-c2ccc3ncc4ccc(=O)n(-c5ccc(C(=O)N6CC7CC6CN7C)cc5)c4c3c2)cc1 (stereo not shown) shows Microsomal Stability (rat) T1/2 equal to >30.0 min

###

method.description: Microsomal stability (rat)
Format: in vitro ADME
measurement.conditions: rat microsomes
measured.endpoint: Microsomal Stability (rat) T1/2 (min)

(a) O=C(c1ccc(-n2c(=O)ccc3c(Cl)nc4ccc(-c5ccc(Cl)cc5)cc4c32)cc1)N1CCOCC1 [Compound 210]
(b) O=C(NCCCO)c1ccc(-n2c(=O)ccc3cnc4ccc(-c5ccc(Cl)cc5)cc4c32)cc1 [Compound 214]
(c) O=C(c1ccc(-n2c(=O)ccc3cnc4ccc(-c5ccc(Cl)cc5)cc4c32)cc1)N1CCNCC1 [Compound 103]
Req: Output the listed items in decreasing order of Microsomal Stability (rat) T1/2. // rank by listing labels in the order requested
Resp: b, c, a
(b: 21.2 min, c: 10.5 min, a: 2.7 min)
